Biological target: rat mGluR1 (Rattus norvegicus, UniProt P23385)
Sequence (P23385 19-1199): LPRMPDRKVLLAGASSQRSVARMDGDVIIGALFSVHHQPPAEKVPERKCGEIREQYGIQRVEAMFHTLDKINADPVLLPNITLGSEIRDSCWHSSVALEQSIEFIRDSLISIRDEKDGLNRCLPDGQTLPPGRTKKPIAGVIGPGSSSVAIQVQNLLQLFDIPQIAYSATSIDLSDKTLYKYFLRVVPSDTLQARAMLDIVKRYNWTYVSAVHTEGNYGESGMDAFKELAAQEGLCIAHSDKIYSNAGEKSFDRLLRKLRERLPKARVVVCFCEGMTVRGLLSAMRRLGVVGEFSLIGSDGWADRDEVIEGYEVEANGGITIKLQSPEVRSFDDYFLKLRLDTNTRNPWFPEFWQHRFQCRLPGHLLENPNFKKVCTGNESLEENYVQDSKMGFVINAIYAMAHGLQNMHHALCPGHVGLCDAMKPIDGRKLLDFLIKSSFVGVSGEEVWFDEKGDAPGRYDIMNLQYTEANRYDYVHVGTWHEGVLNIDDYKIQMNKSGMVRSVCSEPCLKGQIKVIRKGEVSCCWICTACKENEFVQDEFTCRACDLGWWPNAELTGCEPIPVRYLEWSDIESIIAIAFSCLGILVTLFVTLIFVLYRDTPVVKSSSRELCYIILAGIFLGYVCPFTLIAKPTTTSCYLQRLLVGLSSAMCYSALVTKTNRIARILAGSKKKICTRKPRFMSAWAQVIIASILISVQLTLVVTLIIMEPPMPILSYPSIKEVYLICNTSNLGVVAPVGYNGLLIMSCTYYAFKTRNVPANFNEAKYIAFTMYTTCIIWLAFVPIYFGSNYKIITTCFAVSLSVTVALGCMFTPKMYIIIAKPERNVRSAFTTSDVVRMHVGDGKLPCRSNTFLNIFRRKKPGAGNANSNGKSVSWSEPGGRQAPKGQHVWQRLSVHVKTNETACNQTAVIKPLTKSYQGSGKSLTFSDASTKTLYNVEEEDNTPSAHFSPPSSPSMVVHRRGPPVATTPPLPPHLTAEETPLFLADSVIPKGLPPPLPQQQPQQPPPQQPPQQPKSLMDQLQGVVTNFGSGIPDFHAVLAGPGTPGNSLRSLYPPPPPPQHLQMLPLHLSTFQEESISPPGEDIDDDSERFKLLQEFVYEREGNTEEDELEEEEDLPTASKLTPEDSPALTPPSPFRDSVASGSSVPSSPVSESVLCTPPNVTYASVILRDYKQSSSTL
pKi: −log10 of the molar value.
pKi values, listed per item

Below: 7 compounds and their reported pKi.
1. O=S(=O)(c1ccc(F)cc1)c1cnc2ccc(F)cc2c1-c1cccc(Cl)c1 [Compound 24] : < 6.30
2. N#Cc1cccc(S(=O)(=O)c2cnc3cc(F)ccc3c2-c2ccccc2F)c1 [Compound 230] : < 6.30
3. COc1ccc(S(=O)(=O)c2cnc3ccc(F)cc3c2-c2cccc(F)c2)cc1 [Compound 30] : < 6.30
4. O=S(=O)(c1ccc(F)cc1)c1cnc2ccc(Cl)cc2c1-c1cccc(Cl)c1 [Compound 3] : < 6.30
5. O=S(=O)(c1ccc(F)c(Cl)c1)c1cnc2c(F)cccc2c1-c1ccc(F)cc1 [Compound 212] : 6.30 to 6.70
6. O=S(=O)(c1cc(Cl)cc(Cl)c1)c1cnc2cc(F)ccc2c1-c1cccc(F)c1 [Compound 80] : 6.30 to 6.70
7. COc1ccc(-c2c(S(=O)(=O)c3ccc(OC)cc3)cnc3ccc(F)cc23)cc1 [Compound 163] : < 6.30

Continue with the next compound.
Task: Enter recorded pKi with rat mGluR1 (Rattus norvegicus, UniProt P23385) for N#Cc1cccc(S(=O)(=O)c2cnc3cc(F)ccc3c2-c2cc(F)cc(F)c2)c1 [Compound 245] here.
Result: 6.30 to 6.70

###

Target: rat mGluR1 (Rattus norvegicus)
attribute-measured: Ki

1) O=S(=O)(c1ccc(F)c(Cl)c1)c1cnc2cc(Cl)ccc2c1-c1ccccc1F : < 0.2 µM
2) COc1ccc(S(=O)(=O)c2cnc3cc(F)ccc3c2-c2ccc(F)cc2)cc1Cl : > 0.5 µM
3) COc1ccc(S(=O)(=O)c2cnc3c(F)cccc3c2-c2cccc(OC)c2)cc1 : > 0.5 µM

Task: Give me measured Ki, please, for this compound: COc1ccc(-c2c(S(=O)(=O)c3cc(Cl)cc(Cl)c3)cnc3ccc(F)cc23)cc1
Result: > 0.5 µM

Task: Give me measured Ki, please, for this compound: N#Cc1cc(S(=O)(=O)c2cnc3cc(F)ccc3c2-c2ccc(Cl)cc2)ccc1F
Result: > 0.5 µM

###

Target: rat mGluR1 (Rattus norvegicus)
pKi: −log10 of the molar value.
attribute-measured: pKi

1. N#Cc1cccc(S(=O)(=O)c2cnc3ccc(F)cc3c2-c2cccc(Cl)c2)c1 [Compound 135] : 6.30 to 6.70
2. O=S(=O)(c1cc(F)cc(F)c1)c1cnc2cc(Cl)c(F)cc2c1-c1ccc(Cl)cc1 [Compound 201] : < 6.30

Task: Enter recorded pKi with rat mGluR1 (Rattus norvegicus) for O=S(=O)(c1ccc(F)c(F)c1)c1cnc2c(F)cccc2c1-c1cccc(F)c1 [Compound 121] here.
Result: > 6.70

Task: Enter recorded pKi with rat mGluR1 (Rattus norvegicus) for O=S(=O)(c1ccc(F)c(Cl)c1)c1cnc2c(F)cccc2c1-c1ccccc1F [Compound 209] here.
Result: 6.30 to 6.70

###

Target: rat mGluR5 (Rattus norvegicus)
pKi: −log10 of the molar value.
attribute-measured: pKi

1. COc1ccc(S(=O)(=O)c2cnc3c(F)cccc3c2-c2cccc(F)c2)cc1 : > 6.70
2. COc1ccc(-c2c(S(=O)(=O)c3cccc(OC)c3)cnc3ccc(F)cc23)cc1 : > 6.70
3. O=S(=O)(c1ccc(F)c(F)c1)c1cnc2c(F)cccc2c1-c1cccc(F)c1 : > 6.70

Task: Enter recorded pKi with rat mGluR5 (Rattus norvegicus) for O=S(=O)(c1ccc(F)cc1)c1cnc2ccc(Cl)cc2c1-c1ccc(Cl)cc1 here.
Result: < 6.30

Task: Enter recorded pKi with rat mGluR5 (Rattus norvegicus) for O=S(=O)(c1ccc(F)cc1)c1cnc2ccc(F)cc2c1-c1cccc(F)c1 here.
Result: 6.30 to 6.70

Task: Enter recorded pKi with rat mGluR5 (Rattus norvegicus) for N#Cc1cc(F)cc(S(=O)(=O)c2cnc3cc(Cl)ccc3c2-c2cccc(Cl)c2)c1 here.
Result: > 6.70

Task: Enter recorded pKi with rat mGluR5 (Rattus norvegicus) for COc1cccc(S(=O)(=O)c2cnc3cc(F)ccc3c2-c2ccc(F)cc2)c1 here.
Result: > 6.70

Task: Enter recorded pKi with rat mGluR5 (Rattus norvegicus) for O=S(=O)(c1cccc(F)c1)c1cnc2cc(F)ccc2c1-c1ccc(F)cc1 here.
Result: > 6.70

###

As an illustration, consider measured pKi for compounds on rat mGluR1 (Rattus norvegicus, UniProt P23385).
pKi: −log10 of the molar value.

Below: 2 compounds and their reported pKi.
1) O=S(=O)(c1ccc(F)c(Cl)c1)c1cnc2c(F)c(Cl)ccc2c1-c1cccc(F)c1 [Compound 203] : < 6.30
2) O=S(=O)(c1ccc(F)c(F)c1)c1cnc2ccccc2c1-c1ccc(Cl)c(Cl)c1 [Compound 260] : < 6.30

Task: Enter recorded pKi with rat mGluR1 (Rattus norvegicus, UniProt P23385) for COc1ccc(-c2c(S(=O)(=O)c3cccc(F)c3)cnc3c(F)cccc23)cc1 [Compound 61] here.
Result: < 6.30

Task: Enter recorded pKi with rat mGluR1 (Rattus norvegicus, UniProt P23385) for COc1ccc(-c2c(S(=O)(=O)c3cc(Cl)cc(Cl)c3)cnc3c(F)cccc23)cc1 [Compound 107] here.
Result: < 6.30

###

pKi: −log10 of the molar value.
As an illustration, consider measured pKi for molecules on rat mGluR5 (Rattus norvegicus, UniProt P31424).
Sequence (P31424 21-1203): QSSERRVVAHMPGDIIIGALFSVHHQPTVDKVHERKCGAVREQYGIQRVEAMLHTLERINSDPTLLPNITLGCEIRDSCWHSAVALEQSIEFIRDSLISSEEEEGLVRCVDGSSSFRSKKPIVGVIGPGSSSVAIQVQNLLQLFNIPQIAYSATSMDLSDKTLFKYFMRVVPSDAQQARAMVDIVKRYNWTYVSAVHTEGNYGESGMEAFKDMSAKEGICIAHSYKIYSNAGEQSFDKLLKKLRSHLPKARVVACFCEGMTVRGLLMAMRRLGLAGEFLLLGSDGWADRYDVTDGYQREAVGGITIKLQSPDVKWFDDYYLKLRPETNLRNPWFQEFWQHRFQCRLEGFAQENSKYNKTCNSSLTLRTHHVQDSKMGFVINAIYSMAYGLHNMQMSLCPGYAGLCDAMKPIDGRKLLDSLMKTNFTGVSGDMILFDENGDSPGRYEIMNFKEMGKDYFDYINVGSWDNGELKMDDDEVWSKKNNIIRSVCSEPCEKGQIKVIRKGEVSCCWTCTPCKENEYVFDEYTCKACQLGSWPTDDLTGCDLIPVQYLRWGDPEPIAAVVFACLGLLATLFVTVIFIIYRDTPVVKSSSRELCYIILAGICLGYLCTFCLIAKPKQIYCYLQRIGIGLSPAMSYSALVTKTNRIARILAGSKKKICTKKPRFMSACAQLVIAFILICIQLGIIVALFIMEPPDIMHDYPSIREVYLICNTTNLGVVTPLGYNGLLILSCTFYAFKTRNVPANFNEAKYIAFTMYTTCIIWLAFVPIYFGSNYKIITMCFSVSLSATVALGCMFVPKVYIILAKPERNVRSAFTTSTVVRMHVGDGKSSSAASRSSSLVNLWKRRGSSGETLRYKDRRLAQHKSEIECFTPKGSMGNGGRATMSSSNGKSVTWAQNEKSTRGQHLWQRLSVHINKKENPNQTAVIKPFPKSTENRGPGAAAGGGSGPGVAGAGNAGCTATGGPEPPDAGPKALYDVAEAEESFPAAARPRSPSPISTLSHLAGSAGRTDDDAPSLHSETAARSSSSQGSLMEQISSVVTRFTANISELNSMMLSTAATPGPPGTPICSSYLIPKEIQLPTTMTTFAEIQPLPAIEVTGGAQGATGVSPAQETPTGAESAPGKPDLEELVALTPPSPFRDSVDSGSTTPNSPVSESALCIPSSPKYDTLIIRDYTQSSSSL

Below: 4 molecules and their reported pKi.
1) COc1ccc(-c2c(S(=O)(=O)c3ccc(C)c(F)c3)cnc3c(F)cccc23)cc1 [Compound 112] : > 6.70
2) O=S(=O)(c1ccc(F)c(F)c1)c1cnc2ccc(F)cc2c1-c1cccc(Cl)c1 [Compound 149] : 6.30 to 6.70
3) N#Cc1cc(F)cc(S(=O)(=O)c2cnc3cc(F)ccc3c2-c2cccc(Cl)c2)c1 [Compound 244] : > 6.70
4) COc1cccc(-c2c(S(=O)(=O)c3cccc(C#N)c3)cnc3ccc(F)cc23)c1 [Compound 68] : > 6.70

Continue with the next molecule.
Task: Give me measured pKi, please, for this molecule: COc1ccc(S(=O)(=O)c2cnc3ccc(F)cc3c2-c2ccc(Cl)cc2)cc1Cl [Compound 78]
Result: > 6.70

###

Target: rat mGluR1 (Rattus norvegicus, UniProt P23385)
Ki values, listed per item

Below: 5 molecules and their reported Ki.
1) N#Cc1cc(S(=O)(=O)c2cnc3cc(F)ccc3c2-c2ccc(F)cc2)ccc1F : > 500 nM
2) COc1ccc(-c2c(S(=O)(=O)c3ccc(F)c(Cl)c3)cnc3cc(F)ccc23)cc1 : 200 to 500 nM
3) COc1ccc(S(=O)(=O)c2cnc3cc(F)ccc3c2-c2cccc(F)c2)cc1 : > 500 nM
4) O=S(=O)(c1cccc(F)c1)c1cnc2cc(Cl)ccc2c1-c1cccc(F)c1 : > 500 nM
5) O=S(=O)(c1ccc(F)c(Cl)c1)c1cnc2c(F)c(Cl)ccc2c1-c1ccc(Cl)cc1 : > 500 nM

Continue with the next molecule.
Task: Enter recorded Ki with rat mGluR1 (Rattus norvegicus, UniProt P23385) for O=S(=O)(c1ccc(F)c(Cl)c1)c1cnc2cc(F)ccc2c1-c1ccc(F)cc1 here.
Result: < 200 nM

###

pKi: −log10 of the molar value.
As an illustration, consider measured pKi for molecules on rat mGluR1 (Rattus norvegicus, UniProt P23385).

Below: 3 molecules and their reported pKi.
1. COc1ccc(-c2c(S(=O)(=O)c3ccc(OC)c(OC)c3)cnc3ccc(F)cc23)cc1 : < 6.30
2. N#Cc1cccc(S(=O)(=O)c2cnc3cc(F)ccc3c2-c2cccc(Cl)c2)c1 : > 6.70
3. Cc1ccc(S(=O)(=O)c2cnc3c(F)cccc3c2-c2cccc(F)c2)cc1F : < 6.30

Continue with the next molecule.
Task: Give me measured pKi, please, for this molecule: O=S(=O)(c1cc(F)cc(F)c1)c1cnc2cc(F)ccc2c1-c1ccc(Cl)cc1
Result: < 6.30

###

Biological target: rat mGluR1 (Rattus norvegicus, UniProt P23385)
Ki values, listed per item

Below: 5 compounds and their reported Ki.
1. COc1cccc(-c2c(S(=O)(=O)c3cccc(C#N)c3)cnc3ccc(F)cc23)c1 : > 500 nM
2. COc1ccc(-c2c(S(=O)(=O)c3ccc(C)c(F)c3)cnc3c(F)cccc23)cc1 : > 500 nM
3. O=S(=O)(c1cc(Cl)cc(Cl)c1)c1cnc2cc(F)ccc2c1-c1cccc(Cl)c1 : 200 to 500 nM
4. COc1cccc(-c2c(S(=O)(=O)c3ccc(C)c(Cl)c3)cnc3ccc(F)cc23)c1 : > 500 nM
5. O=S(=O)(c1cc(Cl)cc(Cl)c1)c1cnc2cc(Cl)ccc2c1-c1cccc(Cl)c1 : 200 to 500 nM

Task: Enter recorded Ki with rat mGluR1 (Rattus norvegicus, UniProt P23385) for O=S(=O)(c1ccc(F)c(F)c1)c1cnc2c(F)c(Cl)ccc2c1-c1cccc(F)c1 here.
Result: > 500 nM

Task: Enter recorded Ki with rat mGluR1 (Rattus norvegicus, UniProt P23385) for Cc1ccc(S(=O)(=O)c2cnc3ccc(F)cc3c2-c2ccc(F)cc2)cc1F here.
Result: > 500 nM

Task: Enter recorded Ki with rat mGluR1 (Rattus norvegicus, UniProt P23385) for COc1ccc(S(=O)(=O)c2cnc3ccc(F)cc3c2-c2ccc(F)cc2)cc1 here.
Result: > 500 nM
